All values here come from the kinase profiling compilation of Christmann-Franck et al. (2016).

Target: MARK4 (human) (UniProt Q96L34)
Sequence (Q96L34 whole entry, looked up): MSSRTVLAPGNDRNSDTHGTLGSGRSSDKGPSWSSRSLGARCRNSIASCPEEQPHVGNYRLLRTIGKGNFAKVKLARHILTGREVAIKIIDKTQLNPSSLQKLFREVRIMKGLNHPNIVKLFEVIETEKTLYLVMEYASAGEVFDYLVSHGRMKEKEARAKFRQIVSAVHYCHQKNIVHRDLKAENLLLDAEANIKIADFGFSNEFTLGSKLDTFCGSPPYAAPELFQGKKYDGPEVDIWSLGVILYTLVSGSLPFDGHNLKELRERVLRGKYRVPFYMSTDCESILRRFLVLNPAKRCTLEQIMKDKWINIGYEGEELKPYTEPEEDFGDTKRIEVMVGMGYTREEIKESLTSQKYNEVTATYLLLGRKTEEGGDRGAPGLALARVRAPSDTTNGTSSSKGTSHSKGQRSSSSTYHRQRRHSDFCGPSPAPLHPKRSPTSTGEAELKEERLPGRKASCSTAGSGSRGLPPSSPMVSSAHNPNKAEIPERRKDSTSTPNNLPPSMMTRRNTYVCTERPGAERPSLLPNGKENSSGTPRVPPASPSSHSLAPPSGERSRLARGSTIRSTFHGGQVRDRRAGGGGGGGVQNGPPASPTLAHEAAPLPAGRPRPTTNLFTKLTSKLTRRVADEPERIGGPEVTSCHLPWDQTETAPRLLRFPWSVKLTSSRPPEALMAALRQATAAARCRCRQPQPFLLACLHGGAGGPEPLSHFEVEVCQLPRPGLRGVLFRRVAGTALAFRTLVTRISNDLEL
Experiment: radiometric filter-binding kinase assay, Kinase HotSpot
Settings: compound 0.5 µM; ATP 10 µM
Exercise: for every item that follows, state its recorded residual activity.

CC(C)[C@H](CO)Nc1nc(Nc2cccc(Cl)c2)c2ncn(C(C)C)c2n1 has a reported residual activity of 89.8%

residual activity for Nc1nc(Nc2ccc(S(N)(=O)=O)cc2)nn1C(=S)Nc1c(F)cccc1F is 2.33%

What the record says about CS(=O)c1ccc(-c2nc(-c3ccc(F)cc3)c(-c3ccncc3)[nH]2)cc1 (stereo not given) : residual activity is 98.5%

residual activity reading for Nc1nc(Nc2ccc(S(N)(=O)=O)cc2)nn1C(=O)c1c(F)cccc1F : 48%

Lab note: measured residual activity of CC(C)(C)c1nc2c3ccc(F)cc3c3c(=O)[nH]ccc3c2[nH]1 was 44.5%
